- Tested target: Hck (UniProt P08631)
- Sequence (P08631 whole entry, looked up): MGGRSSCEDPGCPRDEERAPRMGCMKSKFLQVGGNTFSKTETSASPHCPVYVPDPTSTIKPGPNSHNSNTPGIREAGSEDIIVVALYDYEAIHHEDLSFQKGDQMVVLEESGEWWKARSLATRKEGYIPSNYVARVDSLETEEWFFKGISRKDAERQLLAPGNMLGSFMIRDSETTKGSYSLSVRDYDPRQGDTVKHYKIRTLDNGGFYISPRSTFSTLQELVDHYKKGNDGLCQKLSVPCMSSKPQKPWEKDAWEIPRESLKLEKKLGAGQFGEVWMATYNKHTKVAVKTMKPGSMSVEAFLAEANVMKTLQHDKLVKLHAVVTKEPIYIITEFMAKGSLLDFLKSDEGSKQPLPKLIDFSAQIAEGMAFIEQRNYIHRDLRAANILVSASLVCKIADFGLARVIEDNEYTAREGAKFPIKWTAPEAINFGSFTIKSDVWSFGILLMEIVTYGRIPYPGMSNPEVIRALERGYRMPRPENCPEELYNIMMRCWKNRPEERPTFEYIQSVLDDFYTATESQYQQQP
- Protocol details: phosphorylation enrichment, bacterial display (enrichment ratio); higher = better substrate or ligand; peptides without Tyr show the background;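 note: 11-residue human phosphosite peptides and single-mutation variants displayed on the E. coli surface, counted by deep sequencing, each peptide's frequency after selection divided by its frequency in the unselected input library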;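 note: frequency after pTyr selection over input frequency; kinase dosed for 20-30% of maximal phosphorylation in three min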
Label scheme for phosphorylation enrichment: lower than 1 is 0, 1 and above is 1.

Assess whether reported phosphorylation enrichment for SVTCTYSAALN [TP53_Y126_P128A] sits at 1 or higher.
0

# repeat for LRFKQYLRNPP [SHC1_Y315]
1

What about this sequence? CTTIHKNFMCN [TP53_Y234_Y234K_YF]
0

# repeat for GLTSTYAGIRK [ROBO1_Y932]
1

What about this sequence? DKVFTYIFIME [SCN4A_Y1074]
0

Next:
phosphorylation enrichment >= 1 for QRALLYEDTLY [UNC13D_Y56_A59T] ?
1

Try TLDTDYQMTKR [ADA_Y308] next.
0

====

- Tested on: c-Src
- Protocol details: phosphorylation enrichment, bacterial display (enrichment ratio); higher = better substrate or ligand; peptides without Tyr show the background
Recorded metric: phosphorylation enrichment
Answer with a number only.

Would you please look over these solved cases?
Return reported phosphorylation enrichment; argument: WVFNHYRCIIW [BRCA2_Y2624_W2626C_YF]
0.497

Moving on to the next sequence: GGQEDYDRLRP [RAC3_Y64_A59G]
0.494

And what about the sequence PFRKLYESVKK [MKI67_Y241_W238R] ?
0.491

Others:
Item under review: FSGKAYADEER [CRIM1_Y826] . Reported phosphorylation enrichment?
0.496

====

- Tested on: c-Src
- Protocol details: phosphorylation enrichment, bacterial display (enrichment ratio); higher = better substrate or ligand; peptides without Tyr show the background
Recorded metric: phosphorylation enrichment
// no unit, no text: just the number

Example results:
I am curious: what phosphorylation enrichment value has been reported for RELGEYPLAEY [ALDH1A3_Y492_A493P] ?
0.492

Also ERIEFYELNKK [PMM2_Y145_D148N] , if possible.
0.507

Another sequence: AFQGKYTPSGQ [ALDOA_Y343_C339Y_YF]
0.298

One more sequence: LARDMDDKEFF [MET_Y1230_Y1230D_YF]
0.498

Next:
What phosphorylation enrichment value was documented for this sequence, GCKNHYDKDKP [THAP1_Y14_R13H] ?
0.445

Same lookup for YPQARYHWLVL [APTX_Y214_K211Q] , please.
0.411

And RHFTTYDTNGR [CLCA1_Y665_Y661H] ?
0.876

Follow-up entry: DWLRRYLENGK [HLA-A_Y195_E190D]
0.617

Query LEAVSYSSRYA [RNLS_Y190] next
0.368

====

- System: AncSZ
- Protocol details: phosphorylation enrichment, bacterial display (enrichment ratio); higher = better substrate or ligand; peptides without Tyr show the background
Note: every record was labeled by where its phosphorylation enrichment sits among interval 1 = under 0.7, interval 2 = from 0.7 up to 1, interval 3 = 1 and over

Form field 'band' for FTRNFYVRAVL [CYBA_Y88_YF]
interval 3

Now let's try a different one.
Class for PLQSEYSSIST [ITGB4_Y1760_T1764S] ?
interval 3

====

- System: c-Src
- Protocol details: phosphorylation enrichment, bacterial display (enrichment ratio); higher = better substrate or ligand; peptides without Tyr show the background
Recorded metric: phosphorylation enrichment
Number only, please.

Solved entries:
Reported phosphorylation enrichment for MENFIYESMRF [CYP19A1_Y361_YF] : what is it?
6.6

Input ADELEYSRTGL [MMUT_Y287_G284E]
0.464

And for IGHGSYAKVLL [PRKCZ_Y263_R260H] ?
0.454

***
Tell me the measured phosphorylation enrichment of IGGHAYGDQFR [IDH1_Y135_R132G_YF] , please.
0.317

Input AEFGLYGAMVR [VSX2_Y222_YF]
3.61

// query: "TRTDAYAVSSF"
0.443

Queued: LQPNNYQFCGG [CSF1R_Y969]
0.632

Another sequence to check: GMTLSYLFREL [NDUFS8_Y74_P79L]
0.383
